# tgt: RET(V804M) mutant (Homo sapiens, UniProt P07949, V804M)
# Construct: purchased Reaction Biology Corporation (contract assay; enzyme is the CRO's)
# Sequence (P07949 29-1114 V804M): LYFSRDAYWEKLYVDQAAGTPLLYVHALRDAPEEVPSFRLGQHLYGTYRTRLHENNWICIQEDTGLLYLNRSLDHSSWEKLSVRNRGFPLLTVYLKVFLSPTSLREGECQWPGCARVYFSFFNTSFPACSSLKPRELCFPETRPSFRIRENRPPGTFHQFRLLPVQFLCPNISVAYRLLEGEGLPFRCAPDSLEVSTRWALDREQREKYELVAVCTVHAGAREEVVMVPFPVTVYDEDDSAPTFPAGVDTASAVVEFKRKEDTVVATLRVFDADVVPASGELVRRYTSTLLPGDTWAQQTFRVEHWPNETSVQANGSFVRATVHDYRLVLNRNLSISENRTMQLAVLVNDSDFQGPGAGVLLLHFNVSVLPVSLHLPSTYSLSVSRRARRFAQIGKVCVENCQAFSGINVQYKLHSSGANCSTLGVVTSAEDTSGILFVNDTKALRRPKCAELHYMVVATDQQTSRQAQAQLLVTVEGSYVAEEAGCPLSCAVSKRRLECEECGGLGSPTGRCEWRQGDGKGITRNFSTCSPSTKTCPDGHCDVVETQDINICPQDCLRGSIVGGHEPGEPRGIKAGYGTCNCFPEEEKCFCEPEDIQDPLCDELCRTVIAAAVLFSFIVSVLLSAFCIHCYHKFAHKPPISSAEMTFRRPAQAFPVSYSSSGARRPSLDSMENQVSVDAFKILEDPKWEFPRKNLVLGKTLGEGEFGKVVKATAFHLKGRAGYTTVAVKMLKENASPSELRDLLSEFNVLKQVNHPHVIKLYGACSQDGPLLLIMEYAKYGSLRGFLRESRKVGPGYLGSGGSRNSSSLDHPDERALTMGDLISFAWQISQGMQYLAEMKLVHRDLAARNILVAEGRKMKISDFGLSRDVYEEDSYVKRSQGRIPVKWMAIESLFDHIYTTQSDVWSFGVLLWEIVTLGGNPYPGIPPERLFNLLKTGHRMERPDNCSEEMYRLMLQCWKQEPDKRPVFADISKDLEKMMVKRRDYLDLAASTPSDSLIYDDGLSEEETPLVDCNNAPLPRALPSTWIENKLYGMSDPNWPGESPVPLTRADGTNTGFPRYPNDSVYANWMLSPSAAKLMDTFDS
# assay comment: Biochemical IC50 of RET(V804M) mutant (33P-ATP filter binding, Reaction Biology)
Doc: threshold 8 nM (exclusive). Items with IC50 beneath it return Criterion met; others return Criterion not met.

Solved entries (count: 3):
structure notation	tgt	assigned category
COc1ccc(CN=S2(=O)CCN(c3ccc(-c4cc(-c5cnn(C)c5)cn5ncc(C#N)c45)cn3)CC2)cn1	RET(V804M) mutant (Homo sapiens, UniProt P07949, V804M)	Criterion met
Cn1cc(-c2cn3ncc(C#N)c3c(-c3ccc(N4CCC(N=S(C)(C)=O)CC4)nc3)n2)cn1	RET(V804M) mutant (Homo sapiens, UniProt P07949, V804M)	Criterion not met
Cn1cc(-c2cc(-c3ccc(N4CCC(N=S(C)(C)=O)CC4)nc3)c3c(C#N)cnn3c2)cn1	RET(V804M) mutant (Homo sapiens, UniProt P07949, V804M)	Criterion met

## Task In the record for `Cn1cc(-c2cn3ncc(C#N)c3c(-c3ccc(N4CCC(N=[S@](C)(=O)c5ccccc5)CC4)nc3)n2)cn1` , is IC50 less than 8 nM?
## Result Criterion not met

## Task In the record for `CC(C)CN=S1(=O)CCN(c2ccc(-c3cc(-c4cnn(C)c4)cn4ncc(C#N)c34)cn2)CC1` , is IC50 less than 8 nM?
## Result Criterion met
